Overview of reported Hemolysis at 100 μg/ml across a group of compounds:
system: human red blood cells (hRBC); test: Hemolysis of human red blood cells; format: cell-based; conditions: red cells of human, 1 h, 100
Where a SMILES comes first, the peptide text is derived from it. [ ]: non-standard residue; d: D form. aThr = C[C@H](O)[C@H](N)C(=O)O; Tle = CC(C)(C)[C@H](N)C(=O)O; dDab = NCC[C@@H](N)C(=O)O; Orn = NCCC[C@H](N)C(=O)O; Dab = NCC[C@H](N)C(=O)O; Nva = CCC[C@H](N)C(=O)O

Supply measured Hemolysis at 100 μg/ml of CCC[C@@H]1NC(=O)[C@@H]2CCCN2C(=O)[C@H]2CCCN2C(=O)[C@H](CO)NC(=O)[C@H](C)NC(=O)[C@H](C(C)(C)C)NC(=O)[C@H](CCN)NC(=O)[C@H](Cc2c[nH]c3ccccc23)NC(=O)[C@H](CCN)NC(=O)[C@@H](CCN)NC(=O)[C@H](CCCN)NC(=O)[C@H](CCN)NC(=O)[C@H](Cc2ccc(O)cc2)NC(=O)[C@H](C)NC1=O [compound 48] (cyclo([Nva]AY[Dab][Orn][dDab][Dab]W[Dab][Tle]AS[dP]P)) in your reply.
1%

New cases:
Entry CC[C@H](C)[C@@H]1NC(=O)[C@@H]2CCCN2C(=O)[C@H]2CCCN2C(=O)[C@H](CO)NC(=O)[C@H](C)NC(=O)[C@H](C(C)(C)C)NC(=O)[C@H](CCN)NC(=O)[C@H](Cc2c[nH]c3ccccc23)NC(=O)[C@H](CCN)NC(=O)[C@@H](CCN)NC(=O)[C@H](CCCN)NC(=O)[C@H](CCN)NC(=O)[C@H](Cc2ccc(O)cc2)NC(=O)[C@H]([C@H](C)O)NC1=O [compound 86] (cyclo(I[aThr]Y[Dab][Orn][dDab][Dab]W[Dab][Tle]AS[dP]P)) needs its Hemolysis at 100 μg/ml filled in; supply it.
1%

* * *

tested on: human red blood cells (hRBC); experiment: Hemolysis of human red blood cells; assay type: cell-based; conditions: red cells of human, 1 h, 100
*1 amine or outer side, *2 acyl side, *3 side chain or, on linkers, in order; H or OH if unused. Where a SMILES comes first, the peptide text is derived from it. [ ]: non-standard residue; d: D form. X2 = O=C([C@H](CCNCc1ccccn1)N[*:1])[*:2]; Cha = N[C@@H](CC1CCCCC1)C(=O)O; Tle = CC(C)(C)[C@H](N)C(=O)O; dDab = NCC[C@@H](N)C(=O)O; Orn = NCCC[C@H](N)C(=O)O; Dab = NCC[C@H](N)C(=O)O; Dap = NC[C@H](N)C(=O)O
test.readout: Hemolysis at 100 μg/ml (%)
Numeric only. Scale: %

# annotated cases, reported Hemolysis at 100 μg/ml shown
Entry CC[C@H](C)[C@@H]1NC(=O)[C@@H]2CCCN2C(=O)[C@H]2CCCN2C(=O)[C@H]([C@@H](C)O)NC(=O)[C@H]([C@@H](C)O)NC(=O)[C@H](C(C)(C)C)NC(=O)[C@H](CCN)NC(=O)[C@H](Cc2c[nH]c3ccccc23)NC(=O)[C@H](CCN)NC(=O)[C@@H](CCN)NC(=O)[C@H](CCN)NC(=O)[C@H](CCN)NC(=O)[C@H](Cc2ccc(O)cc2)NC(=O)[C@H](C)NC1=O [compound 133] (cyclo(IAY[Dab][Dab][dDab][Dab]W[Dab][Tle]TT[dP]P)) needs its Hemolysis at 100 μg/ml filled in; supply it.
1

Given the compound CC[C@H](C)[C@@H]1NC(=O)[C@@H]2CCCN2C(=O)[C@H]2CCCN2C(=O)[C@H](CO)NC(=O)[C@H](C)NC(=O)[C@H](C(C)(C)C)NC(=O)[C@H](CCN)NC(=O)[C@H](Cc2c[nH]c3ccccc23)NC(=O)[C@H](CCN)NC(=O)[C@@H](CCN)NC(=O)[C@H](CCCN)NC(=O)[C@H](CCN)NC(=O)[C@H](Cc2ccc(O)cc2)NC(=O)[C@H](CO)NC1=O [compound 44] (cyclo(ISY[Dab][Orn][dDab][Dab]W[Dab][Tle]AS[dP]P)) , write its reported Hemolysis at 100 μg/ml.
2

Write down Hemolysis at 100 μg/ml measured for item C[C@@H]1NC(=O)[C@H](C(C)(C)C)NC(=O)[C@H](CCN)NC(=O)[C@H](Cc2c[nH]c3ccccc23)NC(=O)[C@H](CCN)NC(=O)[C@@H](CCN)NC(=O)[C@H](CCCN)NC(=O)[C@H](CCNCc2ccccn2)NC(=O)[C@H](CC2CCCCC2)NC(=O)[C@H](CN)NC(=O)[C@H](Cc2c[nH]c3ccccc23)NC(=O)[C@@H]2CCCN2C(=O)[C@H]2CCCN2C(=O)[C@H](CO)NC1=O [Ex. 11] (cyclo(W[Dap][Cha][X2][Orn][dDab][Dab]W[Dab][Tle]AS[dP]P))
0

Return Hemolysis at 100 μg/ml (reported value) for this compound: CC(C)C[C@@H]1NC(=O)[C@@H]2CCCN2C(=O)[C@H]2CCCN2C(=O)[C@H](CO)NC(=O)[C@H](CCN)NC(=O)[C@H](C(C)(C)C)NC(=O)[C@H](CCN)NC(=O)[C@H](Cc2c[nH]c3ccccc23)NC(=O)[C@H](CCN)NC(=O)[C@@H](CCN)NC(=O)[C@H](CCCN)NC(=O)[C@H](CCN)NC(=O)[C@H](Cc2ccc(O)cc2)NC(=O)CNC1=O [compound 157] (cyclo(LGY[Dab][Orn][dDab][Dab]W[Dab][Tle][Dab]S[dP]P))
1

Turning now to a further record.
Identify the reported Hemolysis at 100 μg/ml for the following entry. CC(C)C[C@@H]1NC(=O)[C@@H]2CCCN2C(=O)[C@H]2CCCN2C(=O)[C@H](CO)NC(=O)[C@H](C)NC(=O)[C@H](C(C)(C)C)NC(=O)[C@H](CCN)NC(=O)[C@H](Cc2c[nH]c3ccccc23)NC(=O)[C@H](CCN)NC(=O)[C@@H](CCN)NC(=O)[C@H](CCCN)NC(=O)[C@H](CCCN)NC(=O)[C@H](Cc2ccc(O)cc2)NC(=O)[C@H](CO)NC1=O [compound 87] (cyclo(LSY[Orn][Orn][dDab][Dab]W[Dab][Tle]AS[dP]P))
1

* * *

# maps each entry to its Hemolysis at 100 μg/ml
tested on: human red blood cells (hRBC); assay: Hemolysis of human red blood cells; format: cell-based; details: red cells of human, 1 h, 100
Where a SMILES comes first, the peptide text is derived from it. [ ]: non-standard residue; d: D form. Cha = N[C@@H](CC1CCCCC1)C(=O)O; Chg = N[C@H](C(=O)O)C1CCCCC1; Tle = CC(C)(C)[C@H](N)C(=O)O; dDab = NCC[C@@H](N)C(=O)O; Orn = NCCC[C@H](N)C(=O)O; Dab = NCC[C@H](N)C(=O)O; Nva = CCC[C@H](N)C(=O)O
# number then unit; no other words

// below: answered compounds
Report its Hemolysis at 100 μg/ml with human red blood cells (hRBC) as the test system: CCC[C@@H]1NC(=O)[C@@H]2CCCN2C(=O)[C@H]2CCCN2C(=O)[C@H](CO)NC(=O)[C@H](C)NC(=O)[C@H](C2CCCCC2)NC(=O)[C@H](CCN)NC(=O)[C@H](Cc2c[nH]c3ccccc23)NC(=O)[C@H](CCN)NC(=O)[C@@H](CCN)NC(=O)[C@H](CCCN)NC(=O)[C@H](CCN)NC(=O)[C@H](CC2CCCCC2)NC(=O)[C@H](C)NC1=O [compound 150] (cyclo([Nva]A[Cha][Dab][Orn][dDab][Dab]W[Dab][Chg]AS[dP]P))
4%

Write down measured Hemolysis at 100 μg/ml (human red blood cells (hRBC)) for this compound. CC(C)C[C@@H]1NC(=O)[C@@H]2CCCN2C(=O)[C@H]2CCCN2C(=O)[C@H](CO)NC(=O)[C@H](C)NC(=O)[C@H](C(C)(C)C)NC(=O)[C@H](CCN)NC(=O)[C@H](Cc2c[nH]c3ccccc23)NC(=O)[C@H](CCN)NC(=O)[C@H](CCN)NC(=O)[C@H](CCCCN)NC(=O)[C@H](CCN)NC(=O)[C@H](Cc2ccc(O)cc2)NC(=O)[C@H](CO)NC1=O [compound 26] (cyclo(LSY[Dab]K[Dab][Dab]W[Dab][Tle]AS[dP]P))
1%

Turning now to a further record.
Fill in Hemolysis at 100 μg/ml for CC(C)C[C@@H]1NC(=O)[C@@H]2CCCN2C(=O)[C@H]2CCCN2C(=O)[C@H](CO)NC(=O)[C@H](C)NC(=O)[C@H](C2CCCCC2)NC(=O)[C@H](CCN)NC(=O)[C@H](Cc2c[nH]c3ccccc23)NC(=O)[C@H](CCN)NC(=O)[C@@H](CCN)NC(=O)[C@H](CCCN)NC(=O)[C@H](CCN)NC(=O)[C@H](Cc2ccc(O)cc2)NC(=O)[C@H](C)NC1=O [compound 129] (cyclo(LAY[Dab][Orn][dDab][Dab]W[Dab][Chg]AS[dP]P)) tested with human red blood cells (hRBC).
1%
